Biological target: T1, TNFR1 (Homo sapiens, UniProt P19438)
T1 chain: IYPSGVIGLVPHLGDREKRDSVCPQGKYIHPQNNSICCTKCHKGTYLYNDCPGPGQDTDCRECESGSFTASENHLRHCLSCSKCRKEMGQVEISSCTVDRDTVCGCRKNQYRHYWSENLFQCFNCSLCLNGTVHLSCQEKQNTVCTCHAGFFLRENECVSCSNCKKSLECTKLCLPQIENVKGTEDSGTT
Test: yeast display SC50
Could you please mark 1 (yes) for values of apparent Kd (screen) below 1 nM and 0 (no) for values at or above it?

Before answering, review these 5 worked examples.
D40S (designed binder) MTLQELLREEALRRAEAEAFRYALELLAEKFPEQKEYLLSLAEEIESQIRSLSGVDVEDVRKFLDKEWAWVKELLAEHPAELAEVEAARAARLAELRAEVEAKVAA : 1 (yes)
K35V (designed binder) MTLQELLREEALRRAEAEAFRYALELLAEKFPEQVEYLLDLAEEIESQIRSLSGVDVEDVRKFLDKEWAWVKELLAEHPAELAEVEAARAARLAELRAEVEAKVAA : 0 (no)
L38G (designed binder) MTLQELLREEALRRAEAEAFRYALELLAEKFPEQKEYGLDLAEEIESQIRSLSGVDVEDVRKFLDKEWAWVKELLAEHPAELAEVEAARAARLAELRAEVEAKVAA : 0 (no)
S53M (designed binder) MTLQELLREEALRRAEAEAFRYALELLAEKFPEQKEYLLDLAEEIESQIRSLMGVDVEDVRKFLDKEWAWVKELLAEHPAELAEVEAARAARLAELRAEVEAKVAA : 0 (no)
R92S (designed binder) MTLQELLREEALRRAEAEAFRYALELLAEKFPEQKEYLLDLAEEIESQIRSLSGVDVEDVRKFLDKEWAWVKELLAEHPAELAEVEAARAASLAELRAEVEAKVAA : 1 (yes)

apparent Kd (screen) under 1 nM? Item: E84T (designed binder) MTLQELLREEALRRAEAEAFRYALELLAEKFPEQKEYLLDLAEEIESQIRSLSGVDVEDVRKFLDKEWAWVKELLAEHPAELATVEAARAARLAELRAEVEAKVAA 1 (yes)

Follow-up entry: V57E (designed binder) MTLQELLREEALRRAEAEAFRYALELLAEKFPEQKEYLLDLAEEIESQIRSLSGVDEEDVRKFLDKEWAWVKELLAEHPAELAEVEAARAARLAELRAEVEAKVAA 0 (no)

Follow-up entry: L75S (designed binder) MTLQELLREEALRRAEAEAFRYALELLAEKFPEQKEYLLDLAEEIESQIRSLSGVDVEDVRKFLDKEWAWVKELSAEHPAELAEVEAARAARLAELRAEVEAKVAA 0 (no)
